molecular target: BRG-1 (Homo sapiens); construct: made in house; host or cells: High Five insect cells; test: ATPase catalytic activity of BRG-1, ADP-Glo in vitro biochemical assay; details: ATPase catalytic activity, 30 nM BRG-1, 400 μM ATP, read-out: BRG1 IP50
Sequence (P51532 whole entry): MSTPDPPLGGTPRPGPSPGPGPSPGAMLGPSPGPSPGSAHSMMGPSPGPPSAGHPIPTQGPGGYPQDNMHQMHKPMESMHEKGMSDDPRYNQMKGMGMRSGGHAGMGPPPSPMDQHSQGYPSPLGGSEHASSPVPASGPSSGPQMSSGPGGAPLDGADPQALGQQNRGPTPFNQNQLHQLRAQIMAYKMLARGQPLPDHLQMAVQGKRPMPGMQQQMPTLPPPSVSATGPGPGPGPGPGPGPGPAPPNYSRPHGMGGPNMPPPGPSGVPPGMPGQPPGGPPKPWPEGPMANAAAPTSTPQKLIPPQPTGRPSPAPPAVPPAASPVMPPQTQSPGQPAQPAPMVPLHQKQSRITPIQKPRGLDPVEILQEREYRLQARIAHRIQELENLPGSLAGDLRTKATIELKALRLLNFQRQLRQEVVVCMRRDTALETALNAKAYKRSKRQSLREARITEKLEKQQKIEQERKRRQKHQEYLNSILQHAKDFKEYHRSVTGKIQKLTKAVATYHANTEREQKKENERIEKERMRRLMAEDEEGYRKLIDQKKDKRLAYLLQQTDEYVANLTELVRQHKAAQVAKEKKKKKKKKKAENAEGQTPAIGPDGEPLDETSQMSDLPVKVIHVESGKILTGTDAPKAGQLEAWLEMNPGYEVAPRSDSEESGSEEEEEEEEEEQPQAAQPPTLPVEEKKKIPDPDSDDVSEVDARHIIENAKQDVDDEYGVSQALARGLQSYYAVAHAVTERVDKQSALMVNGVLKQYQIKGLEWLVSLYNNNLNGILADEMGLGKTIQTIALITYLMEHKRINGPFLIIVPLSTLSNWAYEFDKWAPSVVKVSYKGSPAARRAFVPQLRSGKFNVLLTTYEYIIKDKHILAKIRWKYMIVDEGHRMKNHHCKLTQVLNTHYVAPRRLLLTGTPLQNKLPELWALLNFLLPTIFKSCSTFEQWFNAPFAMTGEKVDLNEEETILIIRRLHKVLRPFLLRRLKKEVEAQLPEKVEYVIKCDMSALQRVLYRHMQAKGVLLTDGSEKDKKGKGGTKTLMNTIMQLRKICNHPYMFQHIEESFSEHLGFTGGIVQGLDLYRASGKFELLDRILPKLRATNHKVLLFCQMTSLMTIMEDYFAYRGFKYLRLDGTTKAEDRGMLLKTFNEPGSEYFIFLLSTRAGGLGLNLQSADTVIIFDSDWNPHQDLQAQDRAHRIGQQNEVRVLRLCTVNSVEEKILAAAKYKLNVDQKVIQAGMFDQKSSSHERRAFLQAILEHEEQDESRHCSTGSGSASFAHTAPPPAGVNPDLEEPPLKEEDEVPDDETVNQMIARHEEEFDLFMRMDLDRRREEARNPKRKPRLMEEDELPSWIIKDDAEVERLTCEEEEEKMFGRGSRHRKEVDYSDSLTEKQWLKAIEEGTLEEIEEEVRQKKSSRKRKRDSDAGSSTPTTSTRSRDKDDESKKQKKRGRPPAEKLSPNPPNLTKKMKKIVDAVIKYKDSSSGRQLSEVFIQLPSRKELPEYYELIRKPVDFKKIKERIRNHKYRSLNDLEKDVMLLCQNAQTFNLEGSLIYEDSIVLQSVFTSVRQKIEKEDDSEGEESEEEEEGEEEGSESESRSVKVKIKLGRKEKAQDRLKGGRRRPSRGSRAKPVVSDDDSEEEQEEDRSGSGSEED
Metric name: IC50

Here is how some compounds turned out for IC50.
>  <Compound>
Cn1ncc2ccc(-c3csc(NC(=O)CNC(=O)c4ccn(C(C)(C)C)c4)n3)cc2c1=O

>  <Metric name>
IC50

>  <Result>
> 10 nM

$$$$
>  <Compound>
CC(C)(C)n1ccc(C(=O)NCC(=O)Nc2nc(-c3cccc(N4CC[C@@H]5COC[C@H]5C4)n3)cs2)c1

>  <Metric name>
IC50

>  <Result>
> 10 nM

$$$$
>  <Compound>
CC(C)(C)n1ccc(C(=O)NCC(=O)Nc2nc(-c3cccc(N4CCC5(CCOC5)CC4)n3)cs2)c1

>  <Metric name>
IC50

>  <Result>
> 100 nM

$$$$
>  <Compound>
COC[C@H](NC(=O)c1ccn(C(C)(C)C)c1)C(=O)Nc1nc(-c2cc(F)c3ccn(C)c(=O)c3c2)cs1

>  <Metric name>
IC50

>  <Result>
< 10 nM

$$$$
>  <Compound>
COC[C@H](NC(=O)c1ccn(S(C)(=O)=O)c1)C(=O)Nc1nc(-c2cccc(OC)c2F)cs1

>  <Metric name>
IC50

>  <Result>
> 10 nM

$$$$

Moving on to the next compound.
Given item CS(=O)(=O)n1ccc(C(=O)NCC(=O)Nc2nc(-c3cc(F)c4c(c3)OCO4)cs2)c1 , the value recorded as its IC50 is < 10 nM
